Every entry's value here was drawn from ChEMBL document CHEMBL1201862.

system: PC-3; assay: NCI tumour cell line growth inhibition, 48 h
Activity calls are given as the source filed them. Rule as the data show it: active = GI50 up to about 1.1 µM and inactive = higher.
Labels: yes (active), no (inactive)

>>> class_name("C=C1C(=O)OC2/C=C(\\CO)C3OC3C3OC3(C)CC(OC(=O)/C(=C/C)COC(C)=O)C12 (stereo unspecified)")
"no"
>>> class_name("CC(=O)OCCCCn1cc(Cn2ccc(=O)n(Cc3cn(CCCCOC(C)=O)nn3)c2=O)nn1")
"no"
>>> class_name("Cn1ccnc1S/C(=C\\C=C(C#N)C#N)c1ccc(Cl)cc1")
"no"
>>> class_name("Nc1c(O)c(C(=O)O)cc2ccccc12")
"no"
>>> class_name("COc1cc2c(c(OC)c1OC)-c1ccc(SC)c(=O)cc1C(NC(=O)c1ccccc1)CC2 (stereo unspecified)")
"yes"
>>> class_name("O=c1cc(N2CCOCC2)oc2c(-c3ccccc3)cccc12 [LY-294002]")
"no"
>>> class_name("CCOC(=O)CC1(O)CCCCC1(Sc1ccc(C)cc1)Sc1ccc(C)cc1 (stereo unspecified)")
"no"
>>> class_name("Nc1nc(N)c2c(n1)NC(=O)c1c(c3ccccc3n1Cc1ccc(Cl)cc1)C2")
"no"
>>> class_name("CC(C)(C)OC(=O)N1CCC(C(=O)O)CC1")
"no"
>>> class_name("c1ccc(-c2cc(-c3cccs3)c(-c3cccs3)o2)cc1")
"no"
>>> class_name("CN(N=O)C(=O)Nc1c[nH]c(=O)[nH]c1=O")
"no"
>>> class_name("CC(C)(NC(=O)OCc1ccccc1)C(=O)OC(=O)C(C)(C)NC(=O)OCc1ccccc1")
"no"
>>> class_name("Cc1ccc(C)n1-n1c(Cc2ccc(Cl)cc2)n[nH]c1=O")
"no"
>>> class_name("O=c1[nH]c(=O)n(C2CC(O)C(CO)O2)cc1/N=N/NCCCc1ccccc1 (stereo unspecified)")
"no"
>>> class_name("O=C1c2cccc3cccc(c23)C(=O)N1CCCNCCCCNCCCNCCCN1C(=O)c2cccc3cccc(c23)C1=O")
"yes"
>>> class_name("Cc1ccc(C(=O)/C=C(O)/C(O)=C/C(=O)c2ccc(C)cc2C)c(C)c1")
"no"
>>> class_name("CC(C)(C)C1=NC(=S)SC2=NC(=O)C3(NN21)c1ccccc1-c1ccccc13")
"no"
>>> class_name("C=CCN(CCNS(=O)(=O)c1ccc(C)cc1)S(=O)(=O)c1ccc(C)cc1")
"no"
>>> class_name("O=S(=O)(Oc1ccc2oc3ccccc3c2c1-c1c(OS(=O)(=O)C(F)(F)F)ccc2oc3ccccc3c12)C(F)(F)F")
"no"
>>> class_name("COc1cc(/C=N\\c2nc(-c3ccc(NS(=O)(=O)c4ccc(Cl)c(OC)c4)cc3)cs2)ccc1O")
"no"
>>> class_name("O=C(COc1ccc(OCC(=O)N/N=C/c2ccc(-c3ccc(Cl)cc3Cl)o2)c(Cl)c1)N/N=C/c1ccc(-c2ccc(Cl)cc2Cl)o1")
"no"

====

test system: BT-549; experiment: NCI tumour cell line growth inhibition, 48 h
Calls of active or inactive are those of the source. Rule as the data show it: active = GI50 up to about 1.1 µM and inactive = higher.
Labels: active, inactive

>>> class_name("COc1ccc(C(=O)c2sc(Nc3ccccc3)nc2N)cc1")
"inactive"
>>> class_name("C=C1c2ccccc2C(=O)c2c1c1c(C(=O)OC)c(O)ccc1n2Cc1ccccc1")
"active"
>>> class_name("COC(=O)C1CC=C(SC(=O)c2ccccc2)N1C(=O)c1ccccc1 (stereo unspecified)")
"inactive"
>>> class_name("COC(=O)[C@@H]1O[C@]12C(CO[Si](C)(C)C(C)(C)C)OC(n1ccc(=O)[nH]c1=O)C2O[Si](C)(C)C(C)(C)C (stereo partly specified)")
"inactive"
>>> class_name("Cc1cc(O)c2c(c1)C(=O)C(c1c(C)cc3c(c1O)C(=O)C1OC1C3=O)=CC2=O (stereo unspecified)")
"inactive"
>>> class_name("O=C(CCc1ccccc1)On1c(-c2ccccc2)nc2ccccc2c1=S")
"inactive"
>>> class_name("NNC(=O)c1nnn(CCc2ccccc2)c1C(=O)NN")
"inactive"
>>> class_name("CCOC(=O)c1cc2c3c(c(C(C)=O)c(O)c2[nH]1)N(C(C)=O)CC3")
"inactive"
>>> class_name("CCc1ccc2oc(=O)ccc2c1")
"inactive"
>>> class_name("CC1OC2=N[C@@H]1C(=O)N[C@@H](Cc1ccccc1)C1=N[C@H](C(=O)N[C@@H](Cc3ccccc3)C3=N[C@H](C(=O)N[C@H]2Cc2ccccc2)C(C)O3)C(C)O1 (stereo partly specified)")
"inactive"
>>> class_name("Fc1ccc(C(OCCN2CCC3CCC(C2)N3Cc2cc3ccccc3[nH]2)c2ccc(F)cc2)cc1 (stereo unspecified)")
"inactive"
